Recorded values, source patent US20250066503A1.

- system_name: T1, soluble human CD3 epsilon chain (human, UniProt P07766 23-126)
- T1 construct: also called CD3ε
- assay_name: SPR
Mark each entry YES if its Kd sits below 20 nM, and NO for all others.

Example results:
binder: TR01H040-E22Hh/none-Hi-Kn010G3/L0228-k0 (antibody, V domains shown, one-arm) VH: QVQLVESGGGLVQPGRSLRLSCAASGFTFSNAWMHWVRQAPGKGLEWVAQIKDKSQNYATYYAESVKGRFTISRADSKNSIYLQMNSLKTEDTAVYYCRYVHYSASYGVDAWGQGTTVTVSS VL: DIVMTQSPLSLPVTPGEPASISCRSSQSPVHSNRNTYIHWYQQKPGQAPRLLIYKVSNRFSGVPDRFSGSGSGTDFTLKISRVEAEDVGVYYCVQGTQVPYTFGQGTKLEIK
category: YES

binder: TR01H106-E22Hh/none-Hi-Kn010G3/L0011-k0 (antibody, V domains shown, one-arm) VH: QVQLVESGGGLVQPGRSLRLSCAASGFTFSNAWMHWVRQAPGKGLEWVAQIKDKSQNYATYPAESVKGRFTISRDDSKNSLYLQMNSLKTEDTAVYYCRYVHYAAGYGVDAWGQGTTVTVSS VL: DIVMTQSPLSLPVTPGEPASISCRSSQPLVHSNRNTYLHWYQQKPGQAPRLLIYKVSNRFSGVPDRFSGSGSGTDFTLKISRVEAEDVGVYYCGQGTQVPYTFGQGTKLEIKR
category: NO

binder: TR01H101-E22Hh/none-Hi-Kn010G3/L0011-k0 (antibody, V domains shown, one-arm) VH: QVQLVESGGGLVQPGRSLRLSCAASGFTFSNAWMHWVRQAPGKGLEWVAQIKDKSQNYAVYYAESVKGRFTISRDDSKNSLYLQMNSLKTEDTAVYYCRYVHYAAGYGVDAWGQGTTVTVSS VL: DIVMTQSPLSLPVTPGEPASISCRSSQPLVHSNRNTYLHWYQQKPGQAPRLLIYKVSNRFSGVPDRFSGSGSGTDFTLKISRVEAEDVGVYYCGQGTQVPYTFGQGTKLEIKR
category: NO

[Q] Does the reported Kd of TR01H040-E22Hh/none-Hi-Kn010G3/L0202-k0 (antibody, V domains shown, one-arm) VH: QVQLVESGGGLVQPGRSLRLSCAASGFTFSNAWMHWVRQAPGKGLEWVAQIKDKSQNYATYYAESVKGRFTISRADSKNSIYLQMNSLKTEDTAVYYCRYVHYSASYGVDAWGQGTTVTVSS VL: DIVMTQSPLSLPVTPGEPASISCRSSQSPVHSNRWTYLHWYQQKPGQAPRLLIYKVSNRFSGVPDRFSGSGSGTDFTLKISRVEAEDVGVYYCGQGTQVPYTFGQGTKLEIK stay below 20 nM?
[A] NO

[Q] I'd appreciate it if you could check whether TR01H038-E22Hh/none-Hi-Kn010G3/L0000-k0 (antibody, V domains shown, one-arm) VH: QVQLVESGGGLVQPGRSLRLSCAASGFTFSNAWMHWVRQAPGKGLEWVAQIKDKSNNYATYYAESVKGRFTISRADSKNSIYLQMNSLKTEDTAVYYCRYVHYSASYGVDIWGQGTTVTVSS VL: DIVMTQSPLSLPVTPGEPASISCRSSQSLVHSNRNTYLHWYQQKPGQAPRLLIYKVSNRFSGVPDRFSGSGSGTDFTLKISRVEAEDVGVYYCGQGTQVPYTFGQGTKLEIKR has Kd smaller than 20 nM.
[A] YES
